Source: ChEMBL document CHEMBL3244034

# MIC per record follows
# Tested on: Pseudomonas aeruginosa
# experiment.notes: Antibacterial activity against Pseudomonas aeruginosa after 17 hrs by serial two fold dilution method
# Type: functional

Example entries begin here.
Cn1nnnc1SCC1=C(C(=O)O)N2C(=O)[C@@H](NC(=O)Cn3cccc3)[C@H]2SC1 = > 100 µg/mL
Cn1nnnc1SCC1=C(C(=O)O)N2C(=O)[C@@H](NC(=O)Cn3ccc4ccccc43)[C@H]2SC1 = > 100 µg/mL
CC(=O)OCC1=C(C(=O)O)N2C(=O)[C@@H](NC(=O)Cn3cccc3)[C@H]2SC1 = > 100 µg/mL
CC(=O)OCC1=C(C(=O)O)N2C(=O)[C@@H](NC(=O)Cn3cccc3C=O)[C@H]2SC1 = > 100 µg/mL
Cc1nnc(SCC2=C(C(=O)O)N3C(=O)[C@@H](NC(=O)Cn4cnnn4)[C@H]3SC2)s1 = > 100 µg/mL
Cn1nnnc1SCC1=C(C(=O)O)N2C(=O)[C@@H](NC(=O)Cn3cccc3C=O)[C@H]2SC1 = > 100 µg/mL

Note to self: MIC recorded for CC(=O)OCC1=C(C(=O)O)N2C(=O)[C@@H](NC(=O)Cc3cccs3)[C@H]2SC1 was > 100 µg/mL

Note to self: MIC recorded for Cc1nnc(SCC2=C(C(=O)O)N3C(=O)[C@@H](NC(=O)Cn4cccc4)[C@H]3SC2)s1 was > 100 µg/mL
